Test: S. typhi counter-screen signal inhibition – fluorescence, 4 h, counter-screen for PhoP regulon inhibitor project, dose response (AID 2384)
Conditions: S. typhi GFP reporter counter-screen; series mostly up to 150 µM
Screen size: about 2,300 compounds; about 1,100 (48%) were called active. So high a share suggests a set chosen from earlier hits. The list shows a part of the results. Entries with a potency or affinity are not part of this list.
outcomeMeasure: inhibition

// known answers, use as guide
compound="CCCCCCC(=O)N(O)C1CC(=O)N(Cc2ccccc2)C1=O (configuration not stated)" readoutvalue=inactive
compound="COc1ccc(Nc2nnc(SCC3CCCO3)s2)cc1 (configuration not stated)" readoutvalue=inactive
compound="COc1ccc(Cn2c(=N)c(C(=O)NCC3CCCO3)cc3c(=O)n4ccccc4nc32)cc1 (configuration not stated)" readoutvalue=inactive
compound="Cc1cccc(N(C(=O)CCC(=O)Nc2ccccn2)C(C(=O)NC(C)C)c2ccc(O)cc2)c1 (configuration not stated)" readoutvalue=inactive
compound=Cc1ccc(-c2nc(C(=O)NCCCN(C)C)cc3c2[nH]c2ccccc23)cc1 readoutvalue=inactive
compound=CN(C)/C=N/c1ncc(C(=O)c2ccc(Cl)cc2)s1 readoutvalue=inactive
compound=CC(=O)Nc1ccccc1-c1nc2ccc(C(=O)N3CCN(c4cc(C)ccc4C)CC3)cc2[nH]c1=O readoutvalue=inactive
compound="COc1ccccc1Nc1nc(NCC2CCCO2)c2ccccc2n1 (configuration not stated)" readoutvalue=inactive
compound=Cc1ccc(N2C(=O)[C@@H]3[C@H](C2=O)[C@H]2C=CC=NN2[C@@H]3C(=O)Nc2ccc(Cl)cc2)cc1 readoutvalue=inactive
compound=Cc1noc(C)c1S(=O)(=O)N1CCC(Cc2ccccc2)CC1 readoutvalue=inactive

Record COc1ccc(-c2nnn(-c3ccc(Cl)cc3Cl)c2N)cc1 . Reported inhibition: inactive

---

Assay: S. typhi counter-screen signal inhibition – fluorescence, 4 h, counter-screen for PhoP regulon inhibitor project, dose response (AID 2384)
Details: S. typhi GFP reporter counter-screen; series mostly up to 150 µM
Out of some 2,300 compounds screened, about 1,100 (48%) were called active. The set was probably picked from earlier hits. Some of the results follow. Potency and affinity values are given separately.
outcomeMeasure: inhibition

compound=COC(=O)c1ccccc1NC(=O)CSc1ncn[nH]1 readoutvalue=inactive
compound=CN1C(=O)/C(=C/c2cccc(Cl)c2)Sc2ccc(C(=O)N3CCCC3)cc21 readoutvalue=inactive
compound="Cc1cc(C)cc(NC(=O)C(Sc2nnc(C)c(=O)[nH]2)c2ccccc2)c1 (stereo not drawn)" readoutvalue=inactive
compound=O=C(CCCc1ccccc1)Nc1cccnc1 readoutvalue=inactive
compound=COc1ccc(-c2nc3ccc(C(=O)NCC(OC)OC)cc3nc2-c2ccc(OC)cc2)cc1 readoutvalue=inactive
compound=O=C(NC(=C(Cl)Cl)S(=O)(=O)c1ccc(Cl)cc1)c1ccccc1 readoutvalue=inactive
compound=O=C(C[n+]1cc(-c2ccccc2)n2c1CCC2)c1cccs1 readoutvalue=inactive
compound=O=C(NCc1ccco1)c1ccc2c(c1)N(Cc1ccccc1)CCS2 readoutvalue=inactive
compound=N#Cc1nc(COc2ccc(Br)cc2)oc1NCCCn1ccnc1 readoutvalue=inactive
compound="CCOC(=O)C(NC(C)=O)(Nc1cccc(F)c1)C(F)(F)F (stereo not drawn)" readoutvalue=inactive

Proceed to the following item.
inhibition reading for O=C(Cc1ccccc1)NCC(=O)Nc1cccc(Cl)c1 : inactive

---

Test: S. typhi counter-screen signal inhibition – fluorescence, 4 h, counter-screen for PhoP regulon inhibitor project, dose response (AID 2384)
Details: S. typhi GFP reporter counter-screen; series mostly up to 150 µM
In all, about 2,300 compounds went through this assay and about 1,100 (48%) were called active. The set was probably picked from earlier hits. Some of the results follow. Measured potencies and affinities stand elsewhere.
outcomeMeasure: inhibition

Past entries and their recorded results:
compound=N/C(=N\OC(=O)COc1ccc2ccccc2c1)c1ccccn1 readoutvalue=inactive
compound=CCOC(=O)c1ccc(S(=O)(=O)N2CCN(CCC#N)CC2)cc1 readoutvalue=inactive
compound="CCNC(=O)c1ccc(C2SCC(=O)N2CCc2ccccc2)cc1 (configuration not stated)" readoutvalue=inactive
compound=Cn1c(=O)c(=O)n(C)c2cc(S(=O)(=O)N3CCc4ccccc43)ccc21 readoutvalue=inactive
compound=C=CCOc1ccc(-c2n[nH]c(=S)o2)cc1 readoutvalue=inactive
compound=COc1ccc(OC)c(NC(=O)CSc2nnc3ccc(-c4ccncc4)nn23)c1 readoutvalue=inactive
compound=CCOc1cc(S(=O)(=O)N2CCN(CC)CC2)ccc1Cl readoutvalue=inactive
compound="COc1cccc(NC(=O)N2CCCC(C(=O)Nc3ccccc3OC)C2)c1 (configuration not stated)" readoutvalue=inactive
compound="COc1ccc(CCNC(=O)Cn2c(=O)n(CC3CCCO3)c(=O)c3ccccc32)cc1OC (configuration not stated)" readoutvalue=inactive
compound="COc1ccccc1NC(=O)CSC1CC(=O)N(c2ccc3c(c2)OCO3)C1=O (configuration not stated)" readoutvalue=inactive

Short answer for O=C(/C=C/c1ccccc1)NNC(=O)c1ccco1 : inhibition was inactive

Reported inhibition for Nc1ccc(S(=O)(=O)c2ccc(N)cc2)cc1 was inactive

Recorded inhibition (compound Cc1cccc(OCc2nnc(SCC(=O)N3CCCC3)n2C)c1 ): inactive

For O=C(CNC(=O)Cn1ccc2ccccc2c1=O)NCCCN1CCCCCC1 the compound record lists inhibition as inactive

Entry COc1ccc(N(C(=O)c2cccnc2)S(=O)(=O)c2ccc(F)cc2)cc1 — recorded inhibition = inactive

According to the records, this compound O=C(c1cccs1)N1CCN(S(=O)(=O)c2ccccc2)CC1 displays inhibition of inactive

Value of measured inhibition for the entry O=C1c2ccccc2C(=O)N1CCCP(=O)(O)CCc1ccccc1 : inactive

The recorded inhibition for entry CC(=O)c1ccc(OC(=O)c2cc3ccccc3oc2=O)cc1 equals inactive

Item: COc1ccccc1-n1nc(C(=O)NCc2ccco2)c2ccccc2c1=O | inhibition: inactive

Form field inhibition, entry Cc1cc2ccccc2c(=O)n1CC(=O)NCCC1=CCCCC1 : inactive

Recorded inhibition (compound CN(C)CCN1C(=O)C(O)=C(C(=O)c2cc3ccccc3o2)C1c1ccccn1 (configuration not stated) ): inactive

Note to self: inhibition recorded for Cc1cc(Cl)ccc1OCCCC(=O)N1CCCc2ccccc21 was inactive

Consider CC1CCCCN1S(=O)(=O)c1ccc(S(=O)(=O)NCCc2ccncc2)cc1 (configuration not stated) . Its measured inhibition is inactive

According to the records, this compound CCOC(=O)C(O)(NC(=O)c1cccnc1)C(F)(F)F (configuration not stated) displays inhibition of inactive
